# target.or.test.system: Serine/threonine-protein phosphatase PP1-alpha catalytic subunit (Homo sapiens) (UniProt P62136)
# Sequence (P62136 whole entry, looked up): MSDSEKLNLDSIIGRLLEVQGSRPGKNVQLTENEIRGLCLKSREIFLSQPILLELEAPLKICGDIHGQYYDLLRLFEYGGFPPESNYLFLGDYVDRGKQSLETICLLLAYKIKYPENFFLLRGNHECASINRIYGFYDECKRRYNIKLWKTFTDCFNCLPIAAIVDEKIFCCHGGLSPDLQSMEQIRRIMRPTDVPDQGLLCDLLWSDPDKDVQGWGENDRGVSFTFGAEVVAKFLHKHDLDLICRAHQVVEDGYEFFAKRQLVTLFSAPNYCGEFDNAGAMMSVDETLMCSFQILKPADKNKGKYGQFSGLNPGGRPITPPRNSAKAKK
# protocol.summary: PP1 phosphohistone dephosphorylation inhibitor potency, late-stage follow-up, biochemical, radiolabel, dose response, powder samples (AID 652232)
# settings: purified PP1alpha, 33P-phosphohistone dephosphorylation, scintillation
Activity calls are given as the source filed them.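 How the source made its calls: active means blocks protein phosphatase 1 activity with an IC50 half-maximal inhibitory concentration below 10 µM; inactive means IC50 of 10 µM or higher.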

| molecule | IC50 |
| --- | --- |
| CC(C)(C)OC(=O)N1CCN(C(c2ccccn2)c2cc(Cl)c3cccnc3c2O)CC1 (centres undefined) | 44.2 µM |
| Oc1c(C(c2ccccn2)N2CCN(c3ccccc3F)CC2)cc(Cl)c2cccnc12 (centres undefined) | inactive |
| CC1CCN(C(c2ccccn2)c2cc(Cl)c3cccnc3c2O)CC1 (centres undefined) | inactive |
| Oc1c(C(c2ccccn2)N2CCC(Cc3ccccc3)CC2)cc(Cl)c2cccnc12 (centres undefined) | 27 µM |
